Test system: Pseudomonas aeruginosa I.F.O.
PROTOCOL: MIC, plate method, standard strains
Format: cell-based
PROTOCOL_CONDITIONS: Table 3, standard strain; unit assumed

# MOLECULE, UOM, MIC Pseudomonas aeruginosa I.F.C
data = [
    ("CC1(C)S[C@@H]2[C@H](NC(=O)[C@H](NC(=O)N3CCN(C(=O)c4ccc(Cl)cc4)CC3=O)c3ccccc3)C(=O)N2[C@H]1C(=O)O", "µg/mL", 100),
    ("CC1(C)SC2C(NC(=O)C(NC(=O)N3CCN(CCCl)C(=O)C3=O)c3ccccc3)C(=O)N2C1C(=O)O (single isomer, unassigned)", "µg/mL", 6.25),
    ("CC1(C)S[C@@H]2[C@H](NC(=O)[C@H](NC(=O)N3CC(=O)N(Cc4ccccc4)CC3=O)c3ccccc3)C(=O)N2[C@H]1C(=O)O", "µg/mL", 100),
    ("CCCCCCCCN1CCN(C(=O)NC(C(=O)NC2C(=O)N3C2SC(C)(C)C3C(=O)O)c2ccccc2)C(=O)C1=O (single isomer, unassigned)", "µg/mL", 6.25),
    ("CCCCCCN1CCN(C(=O)NC(C(=O)NC2C(=O)N3C2SC(C)(C)C3C(=O)O)c2ccccc2)C(=O)C1=O (single isomer, unassigned)", "µg/mL", 6.25),
    ("CC1(C)S[C@@H]2[C@H](NC(=O)[C@H](NC(=O)N3CCN(C(=O)Nc4ccccc4)C(=O)C3)c3ccccc3)C(=O)N2[C@H]1C(=O)O", "µg/mL", 50),
    ("CC1(C)S[C@@H]2[C@H](NC(=O)[C@H](NC(=O)N3CC(=O)N(C(=O)c4ccccc4)CC3=O)c3ccccc3)C(=O)N2[C@H]1C(=O)O", "µg/mL", 100),
    ("CN1CCN(C(=O)NC(C(=O)NC2C(=O)N3C2SC(C)(C)C3C(=O)O)c2ccccc2)C(=O)C1=O (single isomer, unassigned)", "µg/mL", 6.25),
    ("CCN1CCN(C(=O)N[C@@H](C(=O)N[C@@H]2C(=O)N3[C@@H]2SC(C)(C)[C@@H]3C(=O)O)c2ccccc2)C(=O)C1=O", "µg/mL", 6.25),
    ("CC(C)N1CCN(C(=O)NC(C(=O)NC2C(=O)N3C2SC(C)(C)C3C(=O)O)c2ccccc2)C(=O)C1=O (single isomer, unassigned)", "µg/mL", 6.25),
    ("CC1(C)SC2C(NC(=O)C(NC(=O)N3CC(=O)NC(=O)C3)c3ccccc3)C(=O)N2C1C(=O)O (centres unmarked)", "µg/mL", 25),
]
